- study-target: Fibroblast growth factor receptor 4 (Homo sapiens);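 further: reported figure is the averaged percent inhibition of FGFR4, from the GSK PKIS kinase screening panel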
- condition-context: at 1 µM
In this section we review reported inhibition values for a set of compounds.
Write down the numeric answer in % and omit the unit.

Requested field: inhibition. Item: CNC(=O)c1cc(-c2ccc(F)cc2)cc(-c2ccc(S(=O)(=O)N3CCCC3)cc2)c1N
0.22

# inhibition lookup, item COC(=O)Nc1nc2ccc(S(=O)(=O)c3ccc(NC(=O)Nc4cc(C(F)(F)F)ccc4F)cc3)cc2[nH]1
0.83

Dear colleague, I am looking for the recorded inhibition of the following compound: CN(C)CCOc1ccc(-c2nc(-c3ccncc3)c(-c3ccc4c(c3)CC/C4=N\O)[nH]2)cc1
0.44

# get_value(readout='inhibition', item= COC(=O)Nc1nc2ccc(Oc3ccc(NC(=O)Nc4cccc(Cl)c4)cc3)cc2[nH]1 )
-0.03

What does the data say about its inhibition? Entry: CCOc1ccc2c(-c3ccnc(Nc4cccc(C(F)(F)F)c4)n3)cnn2n1
-0.95
